test system: PXR homodimer (NR concentration 270 nM); assay: PBM binding z-score (relative to random genomic background probes); higher = stronger binding; sequences stand for … in GC…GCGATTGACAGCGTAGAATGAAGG
Rule: true for PBM binding z-score not less than 0.1, false for anything less.

# example entries with known answers
| Seq String | Class Label |
| --- | --- |
| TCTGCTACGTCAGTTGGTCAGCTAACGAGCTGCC | false |
| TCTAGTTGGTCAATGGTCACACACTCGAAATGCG | false |
| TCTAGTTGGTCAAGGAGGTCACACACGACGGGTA | true |
| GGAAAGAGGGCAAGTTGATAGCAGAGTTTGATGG | true |
| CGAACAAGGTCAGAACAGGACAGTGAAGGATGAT | true |

q: Given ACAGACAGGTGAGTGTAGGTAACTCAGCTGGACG , state whether its PBM binding z-score is at least 0.1.
a: false

q: Given CTCGAAAGGTCGGTTGAGGTGCGTATACGGATAA , state whether its PBM binding z-score is at least 0.1.
a: false

q: Given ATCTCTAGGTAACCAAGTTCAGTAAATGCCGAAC , state whether its PBM binding z-score is at least 0.1.
a: true

q: Given GGAACGAGGGCAAGTTGATAGCGGAGTTTGATGG , state whether its PBM binding z-score is at least 0.1.
a: true

###

Answer each item with its documented PBM binding z-score.
test system: THRa homodimer (NR concentration 90 nM); experiment: PBM binding z-score (relative to random genomic background probes); higher = stronger binding; sequences stand for … in GC…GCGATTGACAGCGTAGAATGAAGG
One number for each entry.

| Seq String | PBM binding z-score |
| --- | --- |
| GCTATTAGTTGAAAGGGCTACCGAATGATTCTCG | -0.623 |
| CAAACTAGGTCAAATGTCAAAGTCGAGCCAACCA | 0.944 |
| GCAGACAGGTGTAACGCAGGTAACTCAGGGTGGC | -0.935 |
| ACTAGCAGGCCAAGATTGGGTCACTCAAACAAAG | 0.533 |
| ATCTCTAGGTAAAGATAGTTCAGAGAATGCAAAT | 0.0734 |
| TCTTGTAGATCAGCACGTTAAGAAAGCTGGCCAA | -0.422 |
| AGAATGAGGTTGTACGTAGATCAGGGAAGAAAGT | 0.288 |
| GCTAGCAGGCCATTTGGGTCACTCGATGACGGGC | 0.48 |

// each sequence listed below needs its PBM binding z-score
1. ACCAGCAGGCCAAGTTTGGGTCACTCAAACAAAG
2. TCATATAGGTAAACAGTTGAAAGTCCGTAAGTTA

a:
[0.952, 0.428]

// each sequence listed below needs its PBM binding z-score
1. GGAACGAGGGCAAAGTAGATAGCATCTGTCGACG
2. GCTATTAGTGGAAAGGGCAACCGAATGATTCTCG
3. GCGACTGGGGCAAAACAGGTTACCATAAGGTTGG
4. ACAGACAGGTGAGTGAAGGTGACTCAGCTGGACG

a:
1. -0.36
2. -0.457
3. 0.0603
4. -0.223

// each sequence listed below needs its PBM binding z-score
1. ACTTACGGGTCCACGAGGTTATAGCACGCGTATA
2. AATACAGGGTCACTAGGCCACAGTAGGTACGAAT
3. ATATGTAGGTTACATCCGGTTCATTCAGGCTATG
4. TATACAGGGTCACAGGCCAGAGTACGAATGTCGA
5. TCGAGTAGGTTAGTCGGGGCCTTCAGCCAACATA

a:
1.65
1.32
0.768
1.94
-0.433

// each sequence listed below needs its PBM binding z-score
1. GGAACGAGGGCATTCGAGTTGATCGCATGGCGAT
2. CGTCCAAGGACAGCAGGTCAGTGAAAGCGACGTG
3. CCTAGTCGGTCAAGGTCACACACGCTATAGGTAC
4. TCGAGTAGGTTACCAATGGGGCAATCAGCTTTCT
5. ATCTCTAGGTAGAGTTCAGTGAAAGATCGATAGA
6. CGTCCTAGGTCAATGCTAGGTCAGTGAAAGCATT

a:
-0.598
0.788
4.28
-0.774
-0.259
1.73
